# protocol_details: Metabolic stability in rat liver microsomes (RLM)
# stated_conditions: both, rat, pooled rat liver microsomes, pH 7.4
result_type: microsomal CLint at 1 μM (µL/min/mg)
Give the value, in units of µL/min/mg, as a plain number.

Name the reported microsomal CLint at 1 μM value associated with the compound CCCN1C[C@H](C(=O)NC(CC)CC)C=C2c3cccc4[nH]cc(c34)C[C@H]21
837

Please give the result for CCN(CC)C(=O)[C@@H]1C=C2c3cccc4[nH]cc(c34)C[C@H]2N(CCC(F)(F)F)C1 too.
236

Please give the result for CCN(CC)C(=O)[C@@H]1C=C2c3cccc4[nH]cc(c34)C[C@H]2N(CCc2ccc(OC)cc2)C1 too.
323

Please give the result for CCC[C@@H](C)NC(=O)[C@@H]1C=C2c3cccc4[nH]cc(c34)C[C@H]2N(C)C1 too.
49.7

Please give the result for CCC[C@@H](C)NC(=O)[C@@H]1C=C2c3cccc4[nH]cc(c34)C[C@H]2N(CCC)C1 too.
860

Please give the result for CC[C@@H](C)NC(=O)[C@H]1C=C2c3cccc4[nH]cc(c34)C[C@H]2N(C)C1 too.
394

Please give the result for C[C@H]1C[C@H](C)N1C(=O)[C@@H]1C=C2c3cccc4[nH]cc(c34)C[C@H]2N(C)C1 too.
25.3

Please give the result for CCN(CC)C(=O)[C@H]1C=C2c3cccc4[nH]cc(c34)C[C@H]2N(CCCF)C1 too.
143

###

Assign Ki to each entry below.
# tested_on: 5-HT2A receptor (Homo sapiens, UniProt P28223)
# Construct: host or cells: HEK293
# Sequence (P28223 whole entry): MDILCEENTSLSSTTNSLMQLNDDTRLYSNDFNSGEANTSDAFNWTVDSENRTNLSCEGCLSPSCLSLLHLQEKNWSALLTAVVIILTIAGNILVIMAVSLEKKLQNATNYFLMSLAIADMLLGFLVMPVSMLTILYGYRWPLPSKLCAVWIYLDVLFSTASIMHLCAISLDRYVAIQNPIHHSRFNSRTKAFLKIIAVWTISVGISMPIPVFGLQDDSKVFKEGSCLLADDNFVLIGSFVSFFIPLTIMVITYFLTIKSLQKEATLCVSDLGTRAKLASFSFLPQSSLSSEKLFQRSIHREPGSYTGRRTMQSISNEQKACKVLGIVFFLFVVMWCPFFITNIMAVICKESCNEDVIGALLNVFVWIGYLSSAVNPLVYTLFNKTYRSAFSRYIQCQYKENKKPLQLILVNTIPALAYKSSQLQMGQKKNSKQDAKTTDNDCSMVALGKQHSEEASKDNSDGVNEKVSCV
# protocol_details: biochemical
# Type: binding
# stated_conditions: 1 nM [^3H]ketanserin, HEK293 stable cell line; read-out: 5-HT2A Receptor Ki (nM) ([^3H]ketanserin)
Give the value, in units of nM, as a plain number.

Enter reported Ki observed with 5-HT2A receptor (Homo sapiens, UniProt P28223) for CCCN1C[C@H](C(=O)N2[C@@H](C)C[C@@H]2C)C=C2c3cccc4[nH]c(Br)c(c34)C[C@H]21 [Compound 47]
1.38

Please give the result for CCN(CC)C(=O)[C@@H]1C=C2c3cccc4[nH]cc(c34)C[C@H]2N(Cc2ccccc2OC)C1 [Compound 10] too.
32.7

Please give the result for CC[C@@H](C)NC(=O)[C@H]1C=C2c3cccc4[nH]cc(c34)C[C@H]2N(C)C1 [Int8a] too.
84.3

Please give the result for CCN(CC)C(=O)[C@@H]1C=C2c3cccc4[nH]cc(c34)C[C@H]2N(Cc2ccccc2O)C1 [Compound 16] too.
2.18

Please give the result for CCC(CC)NC(=O)[C@@H]1C=C2c3cccc4[nH]cc(c34)C[C@H]2N(C)C1 [Int14] too.
0.47

Please give the result for CCCN1C[C@H](C(=O)N(CC)CC)C=C2c3cccc4c3C(CN4)C[C@H]21 (mixture of isomers) [Compound 36] too.
10.7

Please give the result for CC[C@@H](C)NC(=O)[C@@H]1C=C2c3cccc4[nH]c(Br)c(c34)C[C@H]2N(C)C1 [Compound 43] too.
1.13

Please give the result for CCN(CC)C(=O)[C@@H]1C=C2c3cccc4[nH]cc(c34)C[C@H]2N(CCc2ccc(OC)cc2)C1 [Compound 21] too.
1.93

Please give the result for CCN(CC)C(=O)[C@@H]1C=C2c3cccc4[nH]cc(c34)C[C@H]2N(CCc2ccccc2OC)C1 [Compound 11] too.
0.69

Please give the result for CC[C@@H](C)NC(=O)[C@@H]1C=C2c3cccc4[nH]cc(c34)C[C@H]2N(CC)C1 [Compound 5] too.
2.18

Please give the result for CCN(CC)C(=O)[C@@H]1C=C2c3cccc4[nH]cc(c34)C[C@H]2N(CCC(F)(F)F)C1 [Compound 12] too.
5.61

Please give the result for CC[C@@H](C)NC(=O)[C@@H]1C=C2c3cccc4[nH]cc(c34)C[C@H]2N(CCC(F)(F)F)C1 [Compound 40] too.
37.7

Please give the result for C=CCN1C[C@H](C(=O)N2[C@@H](C)C[C@@H]2C)C=C2c3cccc4[nH]cc(c34)C[C@H]21 [Compound 27] too.
8.96

Please give the result for CCN(CC)C(=O)[C@@H]1C=C2c3cccc4[nH]cc(c34)C[C@H]2N(CC2CC2)C1 [Compound 13] too.
2.23

Please give the result for CCN(CC)C(=O)[C@@H]1C=C2c3cccc4[nH]cc(c34)C[C@H]2N(CCc2cccc(OC)c2)C1 [Compound 20] too.
1.03

Please give the result for CCN(CC)C(=O)[C@@H]1C=C2c3cccc4[nH]cc(c34)C[C@H]2N(CCF)C1 [Compound 39] too.
4.54

Please give the result for CCCN1C[C@H](C(=O)N[C@H](C)CC)C=C2c3cccc4[nH]c(Br)c(c34)C[C@H]21 [Compound 46] too.
1.03

Please give the result for CCN(CC)C(=O)[C@@H]1C=C2c3cccc4[nH]c(Br)c(c34)C[C@H]2N(CCC(F)(F)F)C1 [Compound 42] too.
1.84

Please give the result for CCN(CC)C(=O)[C@@H]1C=C2c3cccc4[nH]cc(c34)C[C@H]2N(CCc2ccccn2)C1 [Compound 23] too.
26.6

Please give the result for CCC[C@@H](C)NC(=O)[C@@H]1C=C2c3cccc4[nH]cc(c34)C[C@H]2N(CCC)C1 [Compound 7] too.
0.85

Please give the result for C=CCN1C[C@H](C(=O)N[C@H](C)CC)C=C2c3cccc4[nH]cc(c34)C[C@H]21 [Compound 8] too.
2.38

Please give the result for CCCN1C[C@H](C(=O)N(CC)CC)C=C2c3cccc4[nH]cc(c34)C[C@H]21 [Compound 1] too.
1.06
